Data credit: patent US20260042764A1

# system_name: Avi-KRAS G12D (1-169) GppNHp/RAF1 RBD-3xFLAG (52-151) (Homo sapiens, UniProt P01116, G12D)
# Construct: Avi-KRAS G12D (1-169)
# Sequence (P01116 1-169 isoform P01116-2 G12D): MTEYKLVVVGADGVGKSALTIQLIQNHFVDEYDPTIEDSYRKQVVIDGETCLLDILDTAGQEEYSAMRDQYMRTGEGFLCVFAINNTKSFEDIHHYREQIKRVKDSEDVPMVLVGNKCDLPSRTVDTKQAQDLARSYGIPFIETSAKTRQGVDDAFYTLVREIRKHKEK
# method_summary: Raf1-KRAS G12D-GppNHP disruption HTRF assay (Biological Example 1)
# Assay type: binding
# run_conditions: KRAS G12D, GppNHp-loaded; Table 11
pIC50: −log10 of the molar value.

compound | pIC50
CN(c1nc(OC[C@@]23CCCN2C[C@H](F)C3)nc2c(F)c(-c3ccc(F)c4sc(N)c(C#N)c34)c(C(F)(F)F)cc12)C(CO)CO | > 7.00
C[C@@H]1[C@H](N(C)c2nc(OC[C@@]34CCCN3C[C@H](F)C4)nc3c(F)c(-c4ccc(F)c5sc(N)c(C#N)c45)c(C(F)(F)F)cc23)CCN1C(=O)C1CC1 | > 7.00
CC(=O)N1CCN(c2nc(OC[C@@]34CCCN3C[C@H](F)C4)nc3c(F)c(-c4ccc(F)c5sc(N)c(C#N)c45)c(C(F)(F)F)cc23)CC1 | 6.00 to 7.00
CCN(c1nc(OC[C@@]23CCCN2C[C@H](F)C3)nc2c(F)c(-c3ccc(F)c4sc(N)c(C#N)c34)c(C(F)(F)F)cc12)C(C)C | 6.00 to 7.00
CCN(c1nc(OC[C@@]23CCCN2C[C@H](F)C3)nc2c(F)c(-c3ccc(F)c4sc(N)c(C#N)c34)c(C(F)(F)F)cc12)[C@H]1CCN(C(C)=O)C1 | > 7.00
CS(=O)(=O)C1CN(c2nc(OC[C@@]34CCCN3C[C@H](F)C4)nc3c(F)c(-c4ccc(F)c5sc(N)c(C#N)c45)c(C(F)(F)F)cc23)C1 | 6.00 to 7.00
CCN(C)c1nc(OC[C@@]23CCCN2C[C@H](F)C3)nc2c(F)c(-c3ccc(F)c4sc(N)c(C#N)c34)c(C(F)(F)F)cc12 (single isomer, unassigned) [Compound 196] | > 7.00
CCC(=O)N1C2CCC1CN(c1nc(OC[C@@]34CCCN3C[C@H](F)C4)nc3c(F)c(-c4ccc(F)c5sc(N)nc45)c(C(F)(F)F)cc13)C2 | < 5.00
CN(c1nc(OC[C@@]23CCCN2C[C@H](F)C3)nc2c(F)c(-c3ccc(F)c4sc(N)c(C#N)c34)c(Cl)cc12)[C@H]1C[C@@H](O)C1 | 6.00 to 7.00
CCN(C)c1nc(OC[C@@]23CCCN2C[C@H](F)C3)nc2c(F)c(-c3ccc(F)c4sc(N)c(C#N)c34)c(C(F)(F)F)cc12 [Compound 81] | > 7.00
CN(c1nc(OC[C@@]23CCCN2C[C@H](F)C3)nc2c(F)c(-c3ccc(F)c4sc(N)c(C#N)c34)c(C(F)(F)F)cc12)C1(CO)CC1 | 6.00 to 7.00
N#Cc1c(N)sc2c(F)ccc(-c3c(C(F)(F)F)cc4c(N5CC[C@H]5CO)nc(OC[C@@]56CCCN5C[C@H](F)C6)nc4c3F)c12 | 6.00 to 7.00
COCCN(C)c1nc(OC[C@@]23CCCN2C[C@H](F)C3)nc2c(F)c(-c3ccc(F)c4sc(N)c(C#N)c34)c(C(F)(F)F)cc12 | 6.00 to 7.00
C[C@H](O)C1CCN(c2nc(OC[C@@]34CCCN3C[C@H](F)C4)nc3c(F)c(-c4ccc(F)c5sc(N)c(C#N)c45)c(C(F)(F)F)cc23)CC1 | 6.00 to 7.00
CCN(CCO)c1nc(OCC23CCCN2CCC3)nc2c(F)c(-c3ccc(F)c4sc(N)c(C#N)c34)c(C(F)(F)F)cc12 | > 7.00
CCN(CCO)c1nc(OC[C@@]23CCCN2C[C@H](F)C3)nc2c(F)c(-c3ccc(F)c4sc(N)c(C#N)c34)c(C(F)(F)F)cc12 | > 7.00
N#Cc1c(N)sc2c(F)ccc(-c3c(C(F)(F)F)cc4c(N5CC6CCC5CO6)nc(OC[C@@]56CCCN5C[C@H](F)C6)nc4c3F)c12 (some centres unmarked) | 6.00 to 7.00

###

Recorded pIC50, one value per entry.
# Test system: SW620 cells (KRAS G12V)
# method_summary: Cell-based pERK HTRF assay in SW620 cell (Biological Example 4)
# run_conditions: Homo sapiens, SW-620, SW620 (KRAS G12V) cells, pERK HTRF
pIC50: −log10 of the molar value.

compound | system_name | pIC50
CN1C[C@H](N(C)c2nc(OC[C@@]34CCCN3C[C@H](F)C4)nc3c(F)c(-c4ccc(F)c5sc(N)c(C#N)c45)c(C(F)(F)F)cc23)CC1=O | SW620 cells (KRAS G12V) | > 7.00
CC(C)C(=O)N1CC[C@@](C)(N(C)c2nc(OC[C@@]34CCCN3C[C@H](F)C4)nc3c(F)c(-c4ccc(F)c5sc(N)c(C#N)c45)c(C(F)(F)F)cc23)[C@H]1C | SW620 cells (KRAS G12V) | 6.00 to 7.00
CC(=O)N1C[C@@H]2CCN(c3nc(OC[C@@]45CCCN4C[C@H](F)C5)nc4c(F)c(-c5ccc(F)c6sc(N)c(C#N)c56)c(C(F)(F)F)cc34)[C@@H]2C1 | SW620 cells (KRAS G12V) | 6.00 to 7.00
C[C@@H]1[C@H](N(C)c2nc(OC[C@@]34CCCN3C[C@H](F)C4)nc3c(F)c(-c4ccc(F)c5sc(N)c(C#N)c45)c(Cl)cc23)CCN1C(=O)C(F)F | SW620 cells (KRAS G12V) | 6.00 to 7.00
CN1CCN(c2nc(OC[C@@]34CCCN3C[C@H](F)C4)nc3c(F)c(-c4ccc(F)c5sc(N)c(C#N)c45)c(C(F)(F)F)cc23)CCC1=O | SW620 cells (KRAS G12V) | > 7.00
CCN(c1nc(OC[C@@]23CCCN2C[C@H](F)C3)nc2c(F)c(-c3ccc(F)c4sc(N)c(C#N)c34)c(C(F)(F)F)cc12)[C@H]1CCN(C(=O)C2CC2(F)F)C1 (stereo partly shown) | SW620 cells (KRAS G12V) | > 7.00
CN(c1nc(OC[C@@]23CCCN2C[C@H](F)C3)nc2c(F)c(-c3ccc(F)c4sc(N)c(C#N)c34)c(C(F)(F)F)cc12)C1CCOCC1 | SW620 cells (KRAS G12V) | 6.00 to 7.00
C[C@]1(O)CCN(c2nc(OC[C@@]34CCCN3C[C@H](F)C4)nc3c(F)c(-c4ccc(F)c5sc(N)c(C#N)c45)c(C(F)(F)F)cc23)C1 | SW620 cells (KRAS G12V) | 6.00 to 7.00
CN(C)C(=O)[C@H]1CN(c2nc(OC[C@@]34CCCN3C[C@H](F)C4)nc3c(F)c(-c4ccc(F)c5sc(N)c(C#N)c45)c(C(F)(F)F)cc23)CCO1 | SW620 cells (KRAS G12V) | > 7.00
CCN(c1nc(OC[C@@]23CCCN2C[C@H](F)C3)nc2c(F)c(-c3ccc(F)c4sc(N)c(C#N)c34)c(C(F)(F)F)cc12)C1C[C@@H](C)N(C(=O)C2CC2)C1 (stereo partly shown) | SW620 cells (KRAS G12V) | > 7.00
N#Cc1c(N)sc2c(F)ccc(-c3c(C(F)(F)F)cc4c(N5CCN6C(=O)OCC6C5)nc(OCC56CCCN5CC(F)C6)nc4c3F)c12 (stereo not shown) | SW620 cells (KRAS G12V) | > 7.00
CCN(c1nc(OC[C@@]23CCCN2C[C@H](F)C3)nc2c(F)c(-c3ccc(F)c4sc(N)c(C#N)c34)c(C(F)(F)F)cc12)[C@H]1C[C@H](C)N(C(C)=O)C1 | SW620 cells (KRAS G12V) | > 7.00
CCN(c1nc(OC[C@@]23CCCN2C[C@H](F)C3)nc2c(F)c(-c3ccc(F)c4sc(N)c(C#N)c34)c(C(F)(F)F)cc12)[C@H]1C[C@H]2COC(=O)N2C1 (atropisomer, axis not shown; (aS)) | SW620 cells (KRAS G12V) | > 7.00

###

# system_name: Avi-KRAS G12V (1-169) GppNHp/RAF1 RBD-3xFLAG (52-151) (Homo sapiens, UniProt P01116, G12V)
# Construct: Avi-KRAS G12V (1-169)
# Sequence (P01116 1-169 isoform P01116-2 G12V): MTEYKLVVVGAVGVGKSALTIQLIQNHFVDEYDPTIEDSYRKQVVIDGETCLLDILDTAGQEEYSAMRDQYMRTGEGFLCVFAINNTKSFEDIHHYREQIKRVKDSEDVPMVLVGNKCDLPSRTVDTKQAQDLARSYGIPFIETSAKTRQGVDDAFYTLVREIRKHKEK
# method_summary: Raf1-KRAS G12V-GppNHP disruption HTRF assay (Biological Example 1)
# Format: binding
# run_conditions: KRAS G12V, GppNHp-loaded; class symbols
value_kind: IC50

molecule | value_kind | test_result
CCN(c1nc(OC[C@@]23CCCN2C[C@H](F)C3)nc2c(F)c(-c3ccc(F)c4sc(N)c(C#N)c34)c(C(F)(F)F)cc12)[C@H]1C[C@H](C)N(C(=O)[C@@H]2CC2(F)F)C1 (atropisomer, axis not shown) [Compound 751] | IC50 | < 0.1 µM
CCN(c1nc(OC[C@@]23CCCN2C[C@H](F)C3)nc2c(F)c(-c3ccc(F)c4sc(N)c(C#N)c34)c(C(F)(F)F)cc12)[C@H]1C[C@@H]2CCOC(=O)N2C1 (atropisomer, axis not shown) [Compound 665] | IC50 | 0.1 to 1 µM
CO[C@@H](C)C(=O)N1CC[C@H](N(c2nc(OC[C@@]34CCCN3C[C@H](F)C4)nc3c(F)c(-c4ccc(F)c5sc(N)c(C#N)c45)c(C(F)(F)F)cc23)C2CC2)C1 (atropisomer, axis not shown) [Compound 811] | IC50 | 0.1 to 1 µM
COC(=O)N1CC[C@H]2[C@@H]1CN2c1nc(OC[C@@]23CCCN2C[C@H](F)C3)nc2c(F)c(-c3ccc(F)c4sc(N)c(C#N)c34)c(C(F)(F)F)cc12 (atropisomer, axis not shown) [Compound 716] | IC50 | > 10 µM
CCN(c1nc(OC[C@@]23CCCN2C[C@H](F)C3)nc2c(F)c(-c3ccc(F)c4sc(N)c(C#N)c34)c(C(F)(F)F)cc12)[C@@H]1C[C@H](C)N(C(=O)COC)C1 (atropisomer, axis not shown) [Compound 589] | IC50 | 0.1 to 1 µM
CCN1C[C@@H]2C[C@H](N(CC)c3nc(OC[C@@]45CCCN4C[C@H](F)C5)nc4c(F)c(-c5ccc(F)c6sc(N)c(C#N)c56)c(C(F)(F)F)cc34)CN2C1=O (atropisomer, axis not shown) [Compound 762] | IC50 | < 0.1 µM
N#Cc1c(N)sc2c(F)ccc(-c3c(C(F)(F)F)cc4c(N(C5CC5)[C@H]5CCN(C(=O)[C@H]6CCO6)C5)nc(OC[C@@]56CCCN5C[C@H](F)C6)nc4c3F)c12 (atropisomer, axis not shown) [Compound 812] | IC50 | 0.1 to 1 µM
